Hi there, I'd appreciate the recorded huEGFR^+ mcl-1^-/- MEF EC50 for every entry that follows.
# target.system: human Epidermal Growth Factor Receptor (huEGFR) over-expressed in mcl-1-/- mouse embryonic fibroblasts (human, UniProt P00533 25-1210)
# test.summary: cell-based or functional assay
Respond numerically; units are nM and should not be typed.

Item: AbA-YG (antibody, V domains shown, synthon YG on reduced interchain Cys) VH: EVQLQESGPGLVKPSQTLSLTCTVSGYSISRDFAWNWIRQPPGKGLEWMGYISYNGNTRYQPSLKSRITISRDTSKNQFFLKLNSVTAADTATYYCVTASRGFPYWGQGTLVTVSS VL: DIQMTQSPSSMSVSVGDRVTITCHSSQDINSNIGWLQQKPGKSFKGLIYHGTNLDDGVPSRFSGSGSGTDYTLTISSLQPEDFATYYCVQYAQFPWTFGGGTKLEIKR | huEGFR^+ mcl-1^-/- MEF EC50: 6.4

Sample AbA-SE (antibody, V domains shown, synthon SE on reduced interchain Cys) VH: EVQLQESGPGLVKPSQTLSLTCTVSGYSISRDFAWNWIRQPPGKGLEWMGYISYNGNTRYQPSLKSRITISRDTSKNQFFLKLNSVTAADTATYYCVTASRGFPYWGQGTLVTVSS VL: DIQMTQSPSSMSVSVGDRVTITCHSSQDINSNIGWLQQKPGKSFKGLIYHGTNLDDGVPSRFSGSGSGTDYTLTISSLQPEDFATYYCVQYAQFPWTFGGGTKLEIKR ; huEGFR^+ mcl-1^-/- MEF EC50 observed: 105
